Recorded FACS-Ec50 ratio to BG87P, one value per entry.
Molecular target: T1, human claudin 6 (CLDN6) (human, UniProt P56747 1-220)
T1 construct: also called human CLDN6; hCLDN6
T1 sequence: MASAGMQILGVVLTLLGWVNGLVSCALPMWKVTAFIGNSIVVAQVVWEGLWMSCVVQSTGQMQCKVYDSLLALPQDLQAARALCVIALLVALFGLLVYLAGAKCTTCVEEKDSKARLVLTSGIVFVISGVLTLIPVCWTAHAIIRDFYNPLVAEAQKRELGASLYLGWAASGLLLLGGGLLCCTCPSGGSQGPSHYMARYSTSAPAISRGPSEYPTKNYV
Assay: flow cytometry, HEK293-hCLDN6 cells; ratio to chBG87P
Output: the number by itself.

Some solved cases for reference:
>  <binder>
BG87P-31 (antibody, V domains shown, Solubility engineering variant of BG87P-21) VH: QVQLQQSGAETKKPGASVKVSCKASGYSFTDYHINWVRQASGQRLEWMGYIYPGSGHTKKNEKFKGRVTITRDTSASTAYMELSSLRSEDTAVYYCARSGIYHYVSSYYFDHWGKGTTVTVSS VL: DIQMTQSPSTLSASVGDRVTITCKASQDAGSAVAWYQQKPGKAPKLLIKWASTRHTGVPSRFSGSGSGTEFTLTISSLQPDDFATYYCQQYSSYTFGGGTKVEIK

>  <FACS-Ec50 ratio to BG87P>
1.6

$$$$
>  <binder>
BG87P-34 (antibody, V domains shown, Final lead anti-CLDN6 clone (IGHV3-23 / IGKV1-39 framework); also called BG87-34) VH: EVQLQESGGGLVQPGGSLRLSCAASGYSFSDYHINWVRQAPGKGLEWVGYIYPGSGHTKYNEKFKGRFTISRDTSSNTAYLQMNSLRAEDTAVYYCARSGIYHYVSSYYFDHWGQGTLVTVSS VL: DIQMTQSPSSLSASVGDRVTITCKASQDAGSAVAWYQQKPGKAPKLLIYWASTRHTGVPSRFSGSGSGTDFTLTISSLQPEDFATYYCQQYSSYTFGGGTKLEIK

>  <FACS-Ec50 ratio to BG87P>
1.17

$$$$

Now turn to the next binder.
Form field: reported FACS-Ec50 ratio to BG87P of BG87P-21 (antibody, V domains shown, 2nd round humanized variant) VH: QVQLVQSGAEVKKPGASVKVSCKASGYSFTDYHINWVRQAPGQRLEWMGWIYPGSGYTKYNEKFKGRVTITRDTSASTAYMELSSLRSEDTAVYYCARSGIYHYVSSYYFDHWGKGTTVTVSS VL: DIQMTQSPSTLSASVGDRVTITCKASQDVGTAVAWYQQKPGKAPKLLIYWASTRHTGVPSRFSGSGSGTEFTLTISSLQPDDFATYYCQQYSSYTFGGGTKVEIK 0.91

All values here come from patent US20240301061A1.
